target: PICK1, Q9NRD5; test: holdup assay; parameters: key: below the threshold = too weak to quantify, mostly under pKd 3.1 to 4; conditions: plain residues with an end cap or a label only (N-terminal biotin on a linker: ado-ado)
Sequence (Q9NRD5 17-115): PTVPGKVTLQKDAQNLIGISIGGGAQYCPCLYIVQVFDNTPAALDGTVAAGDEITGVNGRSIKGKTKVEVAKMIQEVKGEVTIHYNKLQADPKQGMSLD
Measure: pKd

A selection of reference data follows.
In [3]: df
Out[3]:
                                 binder  measure                value
0            YRLAQESGLV [ABCC6, O95255]      pKd                 4.19
1  YLEPVLSSEL [ATP2A2, P16615;P16615-3]      pKd  below the threshold
2           KKMPSIESDV [GRIN2A, Q12879]      pKd  below the threshold
3           TKGPRGPTRV [SAPCD1, Q5SSQ6]      pKd                 4.11
4           EKKTLIGIKL [GOT1L1, Q8NHS2]      pKd                 4.14

Sure, the documented pKd for SNAGNTATKA [NOSTRIN, Q8IVI9] is below the threshold

Sure, the documented pKd for HLRARKSEWV [GJD4, Q96KN9] is below the threshold

Sure, the documented pKd for TASPAKETSF [SLC2A7, Q6PXP3] is below the threshold

Sure, the documented pKd for RRLPGKETMA [GRIK2, Q13002] is below the threshold

Sure, the documented pKd for KSGKQTMLVV [TRIM29, Q14134;Q14134-2] is below the threshold

Sure, the documented pKd for NHSSSPETTA [TRMT13, Q9NUP7] is below the threshold

Sure, the documented pKd for RKPKPSSSCC [RAB9A, P51151] is below the threshold
